CC50 values by entry
- System: RAW 264.7 macrophages
- protocol-details: Cell viability / cytotoxicity by the Alamar Blue assay
- Type: cell-based
- measurement-setup: Mus musculus, RAW264.7, 24 h, LPS + IFN-γ activated RAW 264.7 macrophages, N = 6, mean ± SD
Just the number in µg/mL, nothing appended.

Sample answers from the record:
COc1cc2oc(-c3ccc(O)cc3)cc(=O)c2c(O)c1C :: 20.4
COc1c(C)c(O)cc2c1C[C@@H]1OCc3c(cc4c(c3O)OCO4)[C@H]1O2 :: 18.8

// moving on: another record for CC50
Record summary for "COc1cc2c(c(O)c1C)C[C@@H]1OCc3c(cc(OC)c(OC)c3O)[C@H]1O2" : reported CC50 = 71.5
